Data origin: the supplement of paper PMC9112550

Tested on: Escherichia coli TOP10
Experiment description: shrunken log2 fold change of peptide-encoding DNA abundance (4.5 h post-induction vs induction); higher = less antimicrobial activity (less host growth inhibition)
Run parameters: time post-induction: 4.5 h; library: site-saturation at positions 5, 18, 19, 20
Can you tell me shrunken log2 fold change for the items I'm about to list?
Numbers only.

Some sequences with recorded shrunken log2 fold change:
[[record]]
residue_sequence = "RRIRWRPPRLPRPRPRPRRLPRP"
target_of_assay = "Escherichia coli TOP10"
value_measured = 0.474

[[record]]
residue_sequence = "RRIRVRPPRLPRPRPRPERSPRP"
target_of_assay = "Escherichia coli TOP10"
value_measured = 0.276

[[record]]
residue_sequence = "RRIRWRPPRLPRPRPRPLWMPRP"
target_of_assay = "Escherichia coli TOP10"
value_measured = 0.151


Would you mind giving shrunken log2 fold change for every sequence in the list below?
1. RRIRGRPPRLPRPRPRPFNEPRP
2. RRIRMRPPRLPRPRPRPRDCPRP

1. -0.231
2. 0.288

* * *

Test system: Escherichia coli TOP10
Experiment description: shrunken log2 fold change of peptide-encoding DNA abundance (4.5 h post-induction vs induction); higher = less antimicrobial activity (less host growth inhibition)
Run parameters: time post-induction: 4.5 h; library: site-saturation at positions 5, 18, 19, 20
The label depends only on shrunken log2 fold change: True if it is at least 0.3, False if it is smaller.

Would you please look over these solved cases?
[[record]]
residue_sequence = "RRIRMRPPRLPRPRPRPDGCPRP"
label_value = "True"

[[record]]
residue_sequence = "RRIRDRPPRLPRPRPRPEHFPRP"
label_value = "False"

[[record]]
residue_sequence = "RRIRVRPPRLPRPRPRPKIDPRP"
label_value = "False"

[[record]]
residue_sequence = "RRIRFRPPRLPRPRPRPHFVPRP"
label_value = "False"


Please turn your attention to the following entry.
Record RRIRARPPRLPRPRPRPAFTPRP ; criterion: shrunken log2 fold change no lower than 0.3. Met? True

* * *

Test system: Escherichia coli TOP10
Experiment description: shrunken log2 fold change of peptide-encoding DNA abundance (4.5 h post-induction vs induction); higher = less antimicrobial activity (less host growth inhibition)
Run parameters: time post-induction: 4.5 h; library: site-saturation at positions 5, 18, 19, 20
The label depends only on shrunken log2 fold change: criterion met if it is at least 0.02, criterion not met if it is smaller.

Would you please look over these solved cases?
[[record]]
residue_sequence = "RRIRARPPRLPRPRPRPYEEPRP"
target_of_assay = "Escherichia coli TOP10"
label_value = "criterion not met"

[[record]]
residue_sequence = "RRIRVRPPRLPRPRPRPDIPPRP"
target_of_assay = "Escherichia coli TOP10"
label_value = "criterion not met"

[[record]]
residue_sequence = "RRIRLRPPRLPRPRPRPEHDPRP"
target_of_assay = "Escherichia coli TOP10"
label_value = "criterion met"

[[record]]
residue_sequence = "RRIRTRPPRLPRPRPRPDTTPRP"
target_of_assay = "Escherichia coli TOP10"
label_value = "criterion not met"

[[record]]
residue_sequence = "RRIRMRPPRLPRPRPRPVVLPRP"
target_of_assay = "Escherichia coli TOP10"
label_value = "criterion met"

[[record]]
residue_sequence = "RRIRWRPPRLPRPRPRPVRCPRP"
target_of_assay = "Escherichia coli TOP10"
label_value = "criterion met"

[[record]]
residue_sequence = "RRIRHRPPRLPRPRPRPISSPRP"
target_of_assay = "Escherichia coli TOP10"
label_value = "criterion not met"

[[record]]
residue_sequence = "RRIRGRPPRLPRPRPRPMIHPRP"
target_of_assay = "Escherichia coli TOP10"
label_value = "criterion not met"

[[record]]
residue_sequence = "RRIRFRPPRLPRPRPRPQDSPRP"
target_of_assay = "Escherichia coli TOP10"
label_value = "criterion not met"

[[record]]
residue_sequence = "RRIRVRPPRLPRPRPRPCKEPRP"
target_of_assay = "Escherichia coli TOP10"
label_value = "criterion not met"


Record RRIRYRPPRLPRPRPRPVHFPRP ; criterion: shrunken log2 fold change no lower than 0.02. Met? criterion not met

Record RRIRERPPRLPRPRPRPCYCPRP ; criterion: shrunken log2 fold change no lower than 0.02. Met? criterion not met

Record RRIRGRPPRLPRPRPRPGKMPRP ; criterion: shrunken log2 fold change no lower than 0.02. Met? criterion met

Record RRIRWRPPRLPRPRPRPTQNPRP ; criterion: shrunken log2 fold change no lower than 0.02. Met? criterion met

Record RRIRQRPPRLPRPRPRPMFHPRP ; criterion: shrunken log2 fold change no lower than 0.02. Met? criterion not met

Record RRIRGRPPRLPRPRPRPMAHPRP ; criterion: shrunken log2 fold change no lower than 0.02. Met? criterion met

Record RRIRQRPPRLPRPRPRPCAVPRP ; criterion: shrunken log2 fold change no lower than 0.02. Met? criterion met

Record RRIRARPPRLPRPRPRPICCPRP ; criterion: shrunken log2 fold change no lower than 0.02. Met? criterion met

Record RRIRYRPPRLPRPRPRPVREPRP ; criterion: shrunken log2 fold change no lower than 0.02. Met? criterion met

Record RRIRARPPRLPRPRPRPWETPRP ; criterion: shrunken log2 fold change no lower than 0.02. Met? criterion met

Record RRIRVRPPRLPRPRPRPPFSPRP ; criterion: shrunken log2 fold change no lower than 0.02. Met? criterion met

* * *

System: Escherichia coli TOP10
Experiment description: shrunken log2 fold change of peptide-encoding DNA abundance (4.5 h post-induction vs induction); higher = less antimicrobial activity (less host growth inhibition)
Run parameters: time post-induction: 4.5 h; library: site-saturation at positions 5, 18, 19, 20
Recorded metric: shrunken log2 fold change
Answers are plain numbers.

[[record]]
residue_sequence = "RRIRARPPRLPRPRPRPFHVPRP"
value_measured = 0.00498

[[record]]
residue_sequence = "RRIRVRPPRLPRPRPRPVKDPRP"
value_measured = 0.0828

[[record]]
residue_sequence = "RRIRARPPRLPRPRPRPGILPRP"
value_measured = 0.287


Would you mind giving shrunken log2 fold change for every sequence in the list below?
1. RRIRSRPPRLPRPRPRPAIYPRP
2. RRIRNRPPRLPRPRPRPPAAPRP
3. RRIRCRPPRLPRPRPRPQQLPRP
4. RRIRYRPPRLPRPRPRPELIPRP
5. RRIRRRPPRLPRPRPRPELNPRP

1: -1.04; 2: 0.676; 3: -0.054; 4: -0.363; 5: 0.312

Would you mind giving shrunken log2 fold change for every sequence in the list below?
1. RRIRDRPPRLPRPRPRPYWQPRP
2. RRIRDRPPRLPRPRPRPSAIPRP
3. RRIRIRPPRLPRPRPRPEALPRP
4. RRIRQRPPRLPRPRPRPELQPRP
5. RRIRCRPPRLPRPRPRPLCMPRP
6. RRIRFRPPRLPRPRPRPFNLPRP

1. -0.548
2. 0.0484
3. 0.00934
4. -0.0257
5. -0.0162
6. -0.66

Would you mind giving shrunken log2 fold change for every sequence in the list below?
1. RRIRSRPPRLPRPRPRPRYLPRP
2. RRIRMRPPRLPRPRPRPCKTPRP
3. RRIRPRPPRLPRPRPRPINMPRP
4. RRIRFRPPRLPRPRPRPFYTPRP
5. RRIRSRPPRLPRPRPRPWWQPRP
6. RRIRTRPPRLPRPRPRPTHVPRP

1. -0.329
2. -0.00146
3. -0.503
4. -0.89
5. -0.0257
6. 0.122

Would you mind giving shrunken log2 fold change for every sequence in the list below?
1. RRIRIRPPRLPRPRPRPMHPPRP
2. RRIRVRPPRLPRPRPRPTIPPRP
3. RRIRSRPPRLPRPRPRPCWIPRP

[0.00185, -0.0501, -0.0651]

Would you mind giving shrunken log2 fold change for every sequence in the list below?
1. RRIRRRPPRLPRPRPRPLCKPRP
2. RRIRRRPPRLPRPRPRPRICPRP
3. RRIRCRPPRLPRPRPRPKENPRP
4. RRIRLRPPRLPRPRPRPMQNPRP
5. RRIRRRPPRLPRPRPRPWDHPRP
6. RRIRFRPPRLPRPRPRPNEQPRP

0.167
0.414
0.192
0.141
0.0105
0.027

* * *

Tested on: Escherichia coli TOP10;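 also: peptides expressed intracellularly from a pBAD plasmid library in pooled LB shake-flask culture, induced with 0.3% L-arabinose, DNA abundance read by NGS, three biological replicates, DESeq2 with apeglm shrinkage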
Experiment description: shrunken log2 fold change of peptide-encoding DNA abundance (4.5 h post-induction vs induction); higher = less antimicrobial activity (less host growth inhibition)
Run parameters: time post-induction: 4.5 h; library: site-saturation at positions 5, 18, 19, 20
Each record gets a class by shrunken log2 fold change: low (below -0.1), intermediate (-0.1 to below 0.03), high (0.03 or more)

[[record]]
residue_sequence = "RRIRSRPPRLPRPRPRPMGYPRP"
label_value = "intermediate"

[[record]]
residue_sequence = "RRIRNRPPRLPRPRPRPFPFPRP"
label_value = "low"

[[record]]
residue_sequence = "RRIRGRPPRLPRPRPRPDYLPRP"
label_value = "high"


Class? Entry: RRIRIRPPRLPRPRPRPIEIPRP low

Class? Entry: RRIRSRPPRLPRPRPRPMIKPRP low

Class? Entry: RRIRKRPPRLPRPRPRPCDPPRP high

Class? Entry: RRIRHRPPRLPRPRPRPFIIPRP intermediate

Class? Entry: RRIRQRPPRLPRPRPRPIDDPRP low

Class? Entry: RRIRMRPPRLPRPRPRPEYYPRP low

Class? Entry: RRIRSRPPRLPRPRPRPSLEPRP intermediate
